Provenance of the data: patent US9498540B2

measurementDescription: Aggregation of immunoconjugates by analytical size exclusion chromatography
Type: physicochemical
recordedConditions: conjugate with trastuzumab (TBS); Superdex 200 5/150 GL run in PBS
Note to self: values exactly at 60% are 1 (yes). So Aggregation % at or above 60% is 1 (yes), below is 0 (no).

State whether the measured Aggregation % reaches 60%, counting equality as reaching it, for CC(C)(C)[C@H](c1nc(-c2cc(F)ccc2F)nn1Cc1ccccc1)N(CCCN)C(=O)N1CCN(S(C)(=O)=O)CC1
0 (no)

Aggregation % >= 60% for CC(C)(C)[C@H](c1nc(-c2cc(F)ccc2F)cn1Cc1cccc(F)c1)N(C[C@@H]1CNC[C@@H]1F)C(=O)CSCCN ?
0 (no)

Does the reported Aggregation % for N[C@H](CF)CCN(C(=O)CO)[C@@H](c1nc(-c2cc(F)ccc2F)cn1Cc1ccccc1)C1CCOCC1 fall at or above the 60% mark?
1 (yes)

Threshold query (Aggregation % >= 60%) on CSCCC(=O)N(C[C@@H]1CNC[C@@H]1F)[C@@H](c1nc(-c2cc(F)ccc2F)cn1Cc1cccc(F)c1)C(C)(C)C
1 (yes)

Hi, just wondering whether C[C@H](O)C(=O)N(C[C@@H]1CNC[C@@H]1F)[C@@H](c1nc(-c2cc(F)ccc2F)cn1Cc1cccc(N)n1)C1CCOCC1 shows Aggregation % of 60% or higher.
1 (yes)

Could you please find out whether C[C@H](O)C(=O)N(C[C@@H]1CNC[C@@H]1F)[C@@H](c1nc(-c2cc(F)ccc2F)cn1Cc1ccccc1)C1CCS(=O)(=O)CC1 has Aggregation % that meets 60% or exceeds it?
1 (yes)

Reported Aggregation % at or above 60%? C[C@@H]1CN(C(=O)N(C[C@@H]2CNC[C@@H]2F)[C@@H](c2nc(-c3cc(F)ccc3F)nn2Cc2cccc(F)c2)C(C)(C)C)C[C@H](C)O1
0 (no)

Reported Aggregation % at or above 60%? C[C@H](O)C(=O)N(CC[C@H](N)CF)[C@@H](c1nc(-c2cc(F)ccc2F)cn1Cc1ccccc1)C(C)(C)C
0 (no)

Exam item: decide whether the reported Aggregation % for C[C@H](O)C(=O)N(C[C@@H]1CNC[C@@H]1F)[C@@H](c1nc(-c2cc(F)ccc2F)cn1Cc1ccccc1)C(C)(C)C is at least 60%.
0 (no)

Form field: Aggregation % at least 60%? Entry: CC(C)(C)[C@H](c1nc(-c2cc(F)ccc2F)cn1Cc1ccccc1)N(C[C@@H](F)CN)C(=O)N1CCN(S(C)(=O)=O)CC1
0 (no)

Is Aggregation % for C[C@H](O)C(=O)N(CC[C@H](N)CF)[C@@H](c1nc(-c2cc(F)ccc2F)cn1CC1(C)COC1)C(C)(C)C at or above 60%?
0 (no)

// inclusive: Aggregation % at least 60%? input: COC(C)(C)[C@H](c1nc(-c2cc(Cl)ccc2F)cn1Cc1cccc(F)c1)N(C[C@@H]1CN[C@H](CF)C1)C(=O)c1cc(C)nn1C
1 (yes)

Does the compound C[C@H](O)C(=O)N(CCCN)[C@@H](c1nc(-c2cc(F)ccc2F)cn1Cc1ccccc1)C(C)(C)C have recorded Aggregation % that is 60% or more?
1 (yes)

hey, is Aggregation % for this one >= 60%? C[C@H](O)C(=O)N(CC[C@H](N)CF)[C@H](c1nc(-c2cc(F)ccc2F)cn1Cc1ccccc1)C1CCS(=O)(=O)CC1
0 (no)

Given the entry C[C@H](O)C(=O)N(CC[C@H](N)CF)[C@@H](c1nc(-c2cc(F)ccc2F)cn1CC1CCOCC1)C(C)(C)C , answer whether its Aggregation % meets or surpasses 60%.
0 (no)

Does the reported Aggregation % for CC(C)(C)[C@H](c1nc(-c2cc(F)ccc2F)cn1Cc1ccccc1)N(CC[C@H]1COCCN1)C(=O)CO fall at or above the 60% mark?
0 (no)

Confirm if Aggregation % reported for the compound C[C@H](O)C(=O)N(CC[C@H](N)CF)[C@@H](c1nc(-c2cc(F)ccc2F)cn1Cc1ccccc1)C1CCS(=O)(=O)CC1 is 60% or above.
1 (yes)

Does Aggregation % meet or surpass 60% for O=C(NC[C@@H](O)CO)N(C[C@@H]1CNC[C@@H]1F)[C@@H](c1nc(-c2cc(F)ccc2F)cn1Cc1ccccc1)C1CCOCC1 ?
1 (yes)

Could you verify whether the entry CNC(=O)N(C[C@@H]1CNC[C@@H]1F)[C@@H](c1nc(-c2cc(F)ccc2F)cn1Cc1cccc(F)c1)C(C)(C)C shows Aggregation % of no less than 60%?
0 (no)

Is it the case that CC(C)(C)[C@H](c1nc(-c2cc(F)ccc2F)cn1Cc1ccccc1)N(CC[C@H](N)CF)C(=O)CN has Aggregation % reaching or exceeding 60%?
1 (yes)

Confirm if Aggregation % reported for the compound CC(C)(C)[C@H](c1nc(-c2cc(F)ccc2F)cn1Cc1ccccc1)N(CC[C@@H](N)CF)C(=O)c1cccnc1 is 60% or above.
0 (no)

API: above_or_equal(metric=Aggregation %, cutoff=60%) for item C[C@H](O)C(=O)N(C[C@@H]1CNC[C@@H]1F)[C@@H](c1nc(-c2cc(F)ccc2F)cn1Cc1ccccc1)C1CCOCC1
0 (no)

# bool: Aggregation % of CSCCC(=O)N(C[C@@H]1CNC[C@@H]1F)[C@@H](c1nc(-c2cc(F)ccc2F)cn1Cc1ccccc1)C1CCOCC1 >= 60%
1 (yes)

Textbook exercise: given the entry C[C@H](O)C(=O)N(CC[C@H](N)CF)[C@@H](c1nc(-c2cc(F)ccc2F)cn1Cc1ccccc1)C1CCOCC1 , state whether its Aggregation % is greater than or equal to 60%.
1 (yes)

###

measurementDescription: Aggregation of immunoconjugates by analytical size exclusion chromatography
Type: physicochemical
recordedConditions: conjugate with trastuzumab (TBS); Superdex 200 5/150 GL run in PBS
Method: Aggregation was measured by analytical size exclusion chromatography (Superdex 200 5/150 GL run in PBS). It was observed that the extent of aggregation depends on the Linker-Payload and the DAR. […] Table 4 also indicates whether the linking group for each conjugate is stable or cleavable.
Exercise: state measured Aggregation % for each of the molecules provided.

Specify measured Aggregation % for CC(C)(C)[C@H](c1nc(-c2cc(F)ccc2F)nn1Cc1ccccc1)N(CC[C@H](N)CF)C(=O)N1CCSCC1 [Compound 10] .
47%

Retrieve Aggregation % measured for C[C@H](O)C(=O)N(C[C@@H]1CNC[C@@H]1F)[C@@H](c1nc(-c2cc(F)ccc2F)cn1Cc1cccc(F)c1)C(C)(C)C [Compound 14] and print it.
1.5%

Complete the entry with Aggregation % for CC(C)(C)[C@H](c1nc(-c2cc(F)ccc2F)cn1Cc1cccc(F)c1)N(C[C@@H]1CNC[C@@H]1F)C(=O)COCCN [Compound 76]
48.5%

###

measurementDescription: Average drug loading (DAR, drug to antibody ratio) from LC/MS of reduced, deglycosylated conjugates
recordedConditions: conjugate with trastuzumab (TBS); average number of payload molecules per antibody
Hi there, I'd appreciate the recorded DAR for every entry that follows.
Answer using only a numeral; do not append any unit.

Input CC(C)(C)[C@H](c1nc(-c2cc(F)ccc2F)nn1Cc1ccccc1)N(CCCN)C(=O)N1CCC[C@H]1CO , output reported DAR.
3.6

Supply reported DAR belonging to this compound: O=C(c1ccccn1)N(C[C@@H]1CN[C@H](CF)C1)[C@@H](c1nc(-c2cc(F)ccc2F)cn1Cc1ccccc1)C1CCOCC1
3.2

Give me measured DAR, please, for this compound: CC(C)(C)OC(=O)N1C[C@@H](CN(C(=O)CI)[C@@H](c2nc(-c3cc(F)ccc3F)cn2Cc2cccc(F)c2)C(C)(C)C)[C@@H](F)C1
5.8

Report measured DAR; entry is C[C@H](O)C(=O)N(C[C@H]1CCNC1)[C@@H](c1nc(-c2cc(F)ccc2F)cn1Cc1ccccc1)C1CCOCC1
5.2

Dear colleague, please send me the reported DAR for CC(C)(C)[C@H](c1nc(-c2cc(F)ccc2F)cn1Cc1cccc(F)c1)N(C[C@@H]1CNC[C@@H]1F)C(=O)COCCN when you can.
3.1

Output DAR of C[C@H](O)C(=O)N(CC[C@H](N)CF)[C@@H](c1nc(-c2cc(F)ccc2F)cn1CC1CCOCC1)C(C)(C)C
4

###

measurementDescription: Aggregation of immunoconjugates by analytical size exclusion chromatography
Type: physicochemical
recordedConditions: conjugate with trastuzumab (TBS); Superdex 200 5/150 GL run in PBS
readout: Aggregation % (%)
# unit: % | format: bare number

In one line, give reported Aggregation % of the entry O=C([C@H]1CNCCO1)N(C[C@@H]1CNC[C@@H]1F)[C@@H](c1nc(-c2cc(F)ccc2F)cn1Cc1ccccc1)C1CCOCC1 .
4.9

Note Aggregation % for the compound shown: CC(C)(C)[C@H](c1nc(-c2cc(F)ccc2F)nn1Cc1ccccc1)N(CCCN)C(=O)N1CCOCC1
46.1

Give the reported value of Aggregation % for this record: COC(C)(C)[C@H](c1nc(-c2cc(Cl)ccc2F)cn1Cc1cccc(F)c1)N(C[C@@H]1CN[C@H](CF)C1)C(=O)[C@@H]1CCCO1
0.7
